Molecular target: T1, human Siglec-5 expressed on human primary cells (human, UniProt O15389 17-551)
T1 construct: Endogenous receptor on human primary monocytes, dendritic cells, macrophages and neutrophils; also called CD170
T1 sequence: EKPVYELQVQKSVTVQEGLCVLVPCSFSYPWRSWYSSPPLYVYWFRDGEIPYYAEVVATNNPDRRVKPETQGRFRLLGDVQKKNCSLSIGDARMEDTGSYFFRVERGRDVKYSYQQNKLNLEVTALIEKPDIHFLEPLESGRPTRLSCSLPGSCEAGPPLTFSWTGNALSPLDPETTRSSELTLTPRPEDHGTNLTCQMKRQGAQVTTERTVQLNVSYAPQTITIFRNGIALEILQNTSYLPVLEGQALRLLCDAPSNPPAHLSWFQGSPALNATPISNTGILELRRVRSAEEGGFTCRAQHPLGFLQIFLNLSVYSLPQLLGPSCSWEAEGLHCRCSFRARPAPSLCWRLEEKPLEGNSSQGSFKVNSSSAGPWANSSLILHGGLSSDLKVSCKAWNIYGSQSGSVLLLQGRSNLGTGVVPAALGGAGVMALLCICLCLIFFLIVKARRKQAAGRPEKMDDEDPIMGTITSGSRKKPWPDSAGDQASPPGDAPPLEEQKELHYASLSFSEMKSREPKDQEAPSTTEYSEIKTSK
Assay: flow cytometry, human primary dendritic cells, 10 ug/ml mAb
y if MFI is below 400. n if not; exact matches included in n.

Consider the worked cases shown below.
- binder: "anti-Siglec-5 monoclonal antibody 10F9 (antibody, IgG1, V domains shown) VH: EIQLQQSGPELVKPGASVKVSCKASGYSFTGYNMYWVKQSHGKSFEWIGYIDPYTGGTSYNQRFKGKATLTVDKSSSTAFMHLNSLTSEDSAIYYCALFYDYDGFPYWGQGTLVTVSA VL: DIVMTQSQKFMSTSVGDRVSVTCKASQNVDTNVAWYQQKPGQSPKALIYSASYRYSGVPDRFTGSGSGTDFTLTISNVQSEDLAEYFCQQYNSYPYTFGGGTKLEIK"
  classification: "n"
- binder: "anti-Siglec-5 monoclonal antibody 8A1 (antibody, IgG1, V domains shown) VH: EIQLQQSGPELVKPGASVKVSCKASDYAFTSYNIYWVKQSHGKSLEWIGYIDPYNGGTSYNQTFKGKATLTVDKSSSTAYMHLNSLTSEDSAVYYCAMKVGYEAMDYWGQGTSVTVSS VL: DIVMTQSQKFMSTSVGDRVSVTCKASQNVGTYVAWYQQKPGQSPKALIYSASYRYSGVPDRFTGSGSGTDFTLNISNVQSEDLAEYFCQQFNSYPYTFGGGTKLEIK"
  classification: "y"
- binder: "anti-Siglec-5 monoclonal antibody 11H3 (antibody, IgG1, V domains shown) VH: QVQLQQSGPELVKPGASVKVSCKASDYAFTSYNIYWVKQSHGKSLEWIGYIDPYNGGTSYNQTFKGKATLTVDKSSSTAYMHLNSLTSEDSAVYYCAMKVGYEAMDYWGQGTSVTVSS VL: DIQMTQSQKFMSTSVGDRVSVTCKASQNVGTNVAWYQQKPGQSPKALIYSASYRYSGVPDRFTGSGSGTDFTLNISNVQSEDLAEYFCQQFNSYPYTFGGGTKLEIK"
  classification: "y"

[Q] Find out if reported MFI for anti-Siglec-5 monoclonal antibody 10B6 (antibody, IgG1, V domains shown) VH: EIQLQQSGPELVKPGASVKVSCKASGYSFTDYNMYWVKQSHGKSLECFGYIDPYNGGPYYNQKFKGKATLTVDKSSSTAFMHLNSLTSEDSAVYYCAFYYGYYGVPYWGQGTLVTVSA VL: DIVMTQSQKFMSTSVGDRVSVTCKASHNVGTSVAWYQQKPGQSPKSLIYSASYRYSGVPDRFTGSGSGTDFTLTISNVQSEDLAEYFCQQYNSYPLTFGSGTKLEIK is less than 400
[A] n

[Q] Try this binder too: anti-Siglec-5 monoclonal antibody 8C3 (antibody, IgG1, V domains shown) VH: QVQLQQSGGGLVKPGTSVKLSCKASGYIFTEYIIHWVKQRSGQGLEWIGWFYPGIISIKYNEKFKDKATLTADKSSSTVYMELSRLTSEDSAVYFCAGHEGYDGAMDYWGQGTSVTVSS VL: DVLMTQTPLSLPVSLGDQASISCRCSQSIVHSNGNTYLEWYLQKPGQSPKLLIYRVSNRFSGVPDRFSGSGSGTDFTLKISRVEAEDLGVYYCFQGSHVPWTFGGGTKLEIK
[A] n
